Tested on: U-251
TEST METHOD NOTES: NCI tumour cell line growth inhibition, 48 h
Active and inactive are the calls of the source. Cut-off read from the data, not from the text of the source: active = GI50 up to about 1.1 µM and inactive = higher.

{"columns": ["COMPOUND", "GI50"],
 "data": [
  ["COc1ccc(/C=C/C(=O)Oc2ccc(/C=C3\\CCCCC3=O)cc2)cc1", "> 94.6 µM (inactive)"],
  ["O=C1NC(=O)C2(CCC(O)C2)c2cc[n+]([O-])cc21 (stereo unspecified)", "> 100 µM (inactive)"],
  ["O=C(CCCCCCC(=O)Nc1cccnc1)NO [PYROXAMIDE]", "4.76 µM (inactive)"],
  ["NC(CSC1c2ccccc2-c2ccccc21)C(=O)O (stereo unspecified)", "> 100 µM (inactive)"],
  ["O=c1[nH]nc(-c2ccccc2)c(-c2ccccc2)c1-n1nc(-c2ccccc2)c2ccccc2c1=O", "50.8 µM (inactive)"],
  ["CCOC(=O)/C(C[C@H]1OC(C)(C)O[C@@H]1[C@H]1COC(C)(C)O1)=N/O", "> 100 µM (inactive)"],
  ["O=C(Cc1nc2ccc(C(=O)c3ccccc3)cc2nc1O)C(=O)Nc1ccc(Br)cc1", "> 100 µM (inactive)"],
  ["O=C1CC(Cc2n[nH]c3c2CCCC3)CC(=O)N1", "> 100 µM (inactive)"],
  ["COc1ccc(N2C(=O)C3c4[nH]c5ccccc5c4C4CCCCCCCCCC4C3C2=O)cc1 (stereo unspecified)", "> 10 µM (inactive)"],
  ["C=C1CC2(CCOc3ccc(Cl)cc32)OC1=O (stereo unspecified)", "8.63 µM (inactive)"],
  ["N#CC(C(=O)/C(=N\\NC(N)=O)C(C#N)c1ccccc1)c1ccccc1 (stereo unspecified)", "> 100 µM (inactive)"],
  ["CCOC(=O)Oc1cc2c(c(OC)c1OC)-c1ccc(SC)c(=O)cc1C(NC(=O)C(F)(F)F)CC2 (stereo unspecified)", "0.00145 µM (active)"],
  ["O=c1c2cccnc2[nH]c2ccc3[nH]ncc3c12", "> 10 µM (inactive)"],
  ["CCN(CC)CCNc1ccc2nnn3c4ccc(C)cc4c(=O)c1c23", "11.5 µM (inactive)"],
  ["Cc1cc(C)c2c(c1)C/C(=C\\c1ccccc1C(=O)O)C2=O", "7.46 µM (inactive)"],
  ["CCOn1cc(C[C@@]2(O)C(=O)OC3[C@@H](O)CO[C@@]32O)c2ccccc21 (stereo partly specified)", "> 100 µM (inactive)"],
  ["C[C@]12C=CC(=O)C=C1CC[C@@H]1[C@@H]2CC[C@@]2(C)[C@H]1CC[C@]2(O)C(N)=O", "> 100 µM (inactive)"],
  ["O=C1N(Cc2ccccc2)C2CSCC2N1Cc1ccccc1 (stereo unspecified)", "35.3 µM (inactive)"],
  ["CCCCCCCCCCCCCCCCS(=O)(=O)c1ccc(NN)cc1", "6.19 µM (inactive)"],
  ["C=CC(=O)N1C/C(=C\\c2ccc(F)cc2)C(=O)/C(=C/c2ccc(F)cc2)C1", "0.188 µM (active)"],
  ["COC(=O)NC(Nc1ccc(Cl)cc1Cl)(C(F)(F)F)C(F)(F)F", "54.1 µM (inactive)"]
]}

###

System: NCI-H522
TEST METHOD NOTES: NCI tumour cell line growth inhibition, 48 h
The source made the active and inactive calls. Cut-off read from the data, not from the text of the source: active = GI50 up to about 1.1 µM and inactive = higher.
Labels: active, inactive

{"columns": ["COMPOUND", "CLASS ASSIGNMENT"],
 "data": [
  ["CCOC(=O)C(Cc1cccn1C(=O)OC(C)(C)C)[N+](=O)[O-] (stereo not drawn)", "inactive"],
  ["Cn1cnnc1Sc1c([N+](=O)[O-])ncn1C", "inactive"],
  ["O=c1c2cc([N+](=O)[O-])cnc2sn1-c1ccc(Oc2ccccc2)cc1", "inactive"],
  ["CO[C@@H]1C=C[C@@]23c4cc5c(cc4C(=O)O[C@H]2CN(C)[C@H]3C1)OCO5", "inactive"],
  ["COC(=O)C(CCCCN)NC(=O)C(CCCCN)NC(C)=O.Cc1ccc(C(=O)Nc2ccc(S(=O)(=O)O)c3cc(S(=O)(=O)O)cc(S(=O)(=O)O)c23)cc1NC(=O)c1cccc(NC(=O)Nc2cccc(C(=O)Nc3cc(C(=O)Nc4ccc(S(=O)(=O)O)c5cc(S(=O)(=O)O)cc(S(=O)(=O)O)c45)ccc3C)c2)c1", "inactive"],
  ["CCCN(CCCC(NC(C)=O)C(=O)NCc1ccccc1)C(=O)NCCCl (stereo not drawn)", "inactive"],
  ["COc1ccc(NC(=O)CSC(=O)c2ccccc2)c(SCCSSCCSc2cc(OC)ccc2NC(=O)CSC(=O)c2ccccc2)c1", "inactive"],
  ["CC(C)N(C(C)C)P(OCCC#N)OC1CC(n2cnc3c(=O)[nH]cnc32)OC1COC(=O)NCCCCCCNC(=O)OC(C)(C)c1ccc(-c2ccccc2)cc1 (stereo not drawn)", "inactive"],
  ["CCC1C(NC(=O)OC)C(=O)N1[C@@H](C)c1ccccc1 (stereo partly drawn)", "inactive"],
  ["CC(C)OP(=O)(OC(C)C)c1c(N)n[nH]c1Nc1ccccc1", "inactive"],
  ["Cc1ccc(NC(=O)C(=O)C(C(=O)/C=C/c2ccccc2)C2OC(=O)c3ccccc32)c(C)c1 (stereo not drawn)", "inactive"],
  ["CCCCCCCCCCCCCCNC(=O)CCC(NC(=O)c1ccc(N(C)Cc2cnc3nc(N)nc(N)c3n2)cc1)C(=O)NCCCCCCCCCCCCCC (stereo not drawn)", "inactive"],
  ["CC(C)=CCC/C(C)=C/CC/C(C)=C/CC/C(C)=C/CC/C(C)=C/CC/C(C)=C/CC/C(C)=C/CC/C(C)=C/CC/C(C)=C/CO", "inactive"],
  ["O=C(CCSC1=NCCCN1)c1ccc(F)cc1", "inactive"],
  ["COC(=O)/C=C1\\CCCN1CCc1cc2c(cc1CC#N)OCO2", "inactive"],
  ["O=C1C(Cl)=C(Cl)C(=O)C(CCNc2nccs2)=C1Cl", "inactive"],
  ["COc1ccc2c(c1)C1C(CO2)C(c2ccccc2)=NN1c1ccccc1 (stereo not drawn)", "inactive"],
  ["CCOP(=O)(OCC)/C(C#N)=C/c1nccn1C", "inactive"],
  ["CCCCCCCCCCCCCCCCCCOCC(CO[PH](=O)O)OCCCCCCCCCCCCCCCCCC (stereo not drawn)", "inactive"],
  ["O=P(NCCCO)(OCc1ccccc1)N(CCCl)CCCl (stereo not drawn)", "inactive"],
  ["c1ccc(CN(Cn2cccn2)Cn2cccn2)nc1", "inactive"],
  ["O=[As](O)(O)c1ccc(NCc2ccccc2)cc1", "inactive"],
  ["O=C1/C(=C/c2ccc3c(c2)CCC3)Cc2cc3c(cc21)CCC3", "inactive"],
  ["O=[N+]([O-])c1cccc2nc3ccccc3c(NCCO)c12", "active"],
  ["O=C1CSC(c2cccc(Cl)c2)N1c1ccc(-n2c(-c3ccccc3)nc3ccccc3c2=O)cc1 (stereo not drawn)", "inactive"],
  ["N#CC(=C1CCCCC1)c1nc2ccccc2o1", "inactive"],
  ["COc1ccccc1OCC(COC(=O)Nc1ccc(C)cc1)OC(=O)Nc1ccc(C)cc1 (stereo not drawn)", "inactive"],
  ["Cc1ccc(/N=N/C(=NNC(=O)c2ccc(C)cc2)c2ccc(N(C)C)cc2)cc1", "inactive"],
  ["CC(CC(N)C(=O)O)C(=O)O (stereo not drawn)", "inactive"],
  ["COC(=O)c1c(CC(Cc2ccc3c(c2)CCCC3)C(=O)O)ccc2c1CCCC2 (stereo not drawn)", "inactive"],
  ["Cc1ccc(C(=O)C(C)N)cc1C (stereo not drawn)", "inactive"],
  ["COc1cc2c3cc1Oc1c(OC)c(OC)cc4c1C(Cc1ccc(O)c(c1)Oc1ccc(cc1)CC3N(C)CC2)N(C)CC4 (stereo not drawn)", "inactive"],
  ["CC(C)(C)c1cc(COc2cc(COc3ccc(-c4c5c(nc6c4CCc4ccc(-c7c8ccccc8nc8ccccc78)cc4-6)-c4cc(-c6c7ccccc7nc7ccccc67)ccc4CC5)cc3)cc(OCc3cc(C(C)(C)C)cc(C(C)(C)C)c3)c2)cc(C(C)(C)C)c1", "inactive"],
  ["NC(=O)N/N=C/C(/C=N/NC(N)=O)[N+](=O)[O-]", "inactive"],
  ["CC(=O)Oc1cc2c(cc1OC(C)=O)OCC(c1ccc(C)cc1)C2 (stereo not drawn)", "inactive"],
  ["COc1ccc(OC)c(CSc2ccc(OC)c(OC)c2)c1", "inactive"],
  ["CCN(CC)CCNc1ccc2nnn3c4ccc(C)cc4c(=O)c1c23", "inactive"],
  ["O=C(c1ccccc1)N1OCCC1Nc1ccc(Br)cc1 (stereo not drawn)", "inactive"]
]}
